- experimental-system: human PAH with the R408W mutation (Homo sapiens, UniProt P00439, R408W)
- Construct: expressed in transfected cells
- Sequence (P00439 whole entry R408W): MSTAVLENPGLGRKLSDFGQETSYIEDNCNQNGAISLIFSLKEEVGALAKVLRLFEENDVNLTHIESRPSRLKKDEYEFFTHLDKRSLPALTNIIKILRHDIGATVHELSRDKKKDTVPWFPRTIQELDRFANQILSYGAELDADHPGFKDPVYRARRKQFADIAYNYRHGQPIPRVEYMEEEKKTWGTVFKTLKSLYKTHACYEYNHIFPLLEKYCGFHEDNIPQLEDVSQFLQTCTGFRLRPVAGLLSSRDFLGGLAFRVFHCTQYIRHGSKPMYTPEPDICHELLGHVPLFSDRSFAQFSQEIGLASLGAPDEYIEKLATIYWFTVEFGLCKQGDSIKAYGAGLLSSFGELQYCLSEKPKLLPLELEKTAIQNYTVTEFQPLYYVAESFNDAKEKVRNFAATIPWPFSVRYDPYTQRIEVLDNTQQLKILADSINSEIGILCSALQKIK
- method-summary: Cell Based Phenylalanine Flux Assay
- assay-setup: A375 cells expressing human R408W PAH; 24 hrs compound incubation; 13C-Tyrosine by LC-MS; average where tested multiple times; read-out: AC50
measure-name: AC50

>  <compound>
O=C(c1nncs1)N1CCc2[nH]cnc2[C@H]1c1nc2ccc(Br)cc2[nH]1 [Example 977]

>  <AC50>
500 to 1000 nM

$$$$

[ask] Give human PAH with the R408W mutation (Homo sapiens, UniProt P00439, R408W) AC50 for Cc1cc(F)ccc1-c1nnc(C(=O)N2CCc3[nH]cnc3[C@H]2c2nc3ccccc3s2)o1 [Example 1783]
[reply] < 500 nM

[ask] Tell me reported AC50 for COc1ccn2ncc(C(=O)N3CCc4[nH]cnc4[C@@H]3c3nc4ccccc4s3)c2c1 [Example 1084] , tested with human PAH with the R408W mutation (Homo sapiens, UniProt P00439, R408W).
[reply] 1000 to 5000 nM
